Experiment: NCI Yeast Anticancer Drug Screen. Data for the cln2 rad14 strain (AID 165);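 also: 0% = growth equal to vehicle treated cultures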
Conditions: S. cerevisiae cln2 rad14 strain, at 50.0 µM
Compounds without any hit were thinned out: in the full panel of roughly 79,000, 15% have a hit. Calls of active or inactive are those of the source. Rule as the data show it: active = growth inhibition above about 70%; inactive = the rest.
Possible outcomes: 1 (yes) for active, 0 (no) for inactive

| compound | assigned_category |
| --- | --- |
| CCOc1ccc2c(N/N=C/c3ccc(N(CCCl)CCCl)cc3)cc(C)nc2c1 | 1 (yes) |
| C/C=C/CC1(c2ccccc2)C(=O)NC(=S)NC1=O | 0 (no) |
| CC(OC(N)=O)C(F)(F)C(F)F (stereo not given) | 0 (no) |
| Cc1ccc(O)cc1 | 0 (no) |
| [Cl][Pt][Cl].[NH-]NC(=O)c1ccncc1 | 0 (no) |
| CC(C)CCON=C(N)N | 0 (no) |
| CC1(C)OC(C=O)C2CC(=O)c3c(O)cccc3C2(C)O1 (stereo not given) | 0 (no) |
| CN1CCC2(CC1)c1ccccc1-c1ccccc12 | 0 (no) |
| CCN(CC)c1cc[c]([Hg][O]C(C)=O)cc1 | 1 (yes) |
| Cc1ccc2c(c1)N(CCN(CCCl)CCCl)c1c(ccc3ccccc13)S2 | 1 (yes) |
| COc1cc2c(c3c[n+](C)c4c5cc6c(cc5ccc4c13)OCO6)OCO2 | 1 (yes) |
| CC(=O)[CH-]C(C)=O.CC(=O)[CH-]C(C)=O.[O-]c1ccccc1.[O-]c1ccccc1.[Ti+4] | 0 (no) |
| CC1NC1c1ccccc1 (stereo not given) | 0 (no) |
| C=CC[As](=O)(O)c1ccccc1Cl | 1 (yes) |
| CCC(CC)(COC(=O)C(O)(c1ccccc1)c1ccccc1)C[N+](C)(C)C | 0 (no) |
